- Procedure Details: soluble fraction after stress (log2 fold change); higher = more stays soluble; pooled small domains, quantitative proteomics
- Assay Setup: stress: pH 4
sequences and their reported soluble fraction (log2)
Lab note: write the figure by itself, no unit.

Sequence String	soluble fraction (log2)
HMGNAQELQKKLEGLKGISGIEKLESDHYAEKYLVRITQPVDHKNPAAGTFTQRVIVAHVGFDRPTILVT	0.318

Next sequence, soluble fraction (log2) to be filled in.
Ask: Give the reported value of soluble fraction (log2) for this record: HMKISDMIETNLKFLRGKHSISQAELAESLGIPRTTLSAYERGFVEPNIELMLKMAKYFNVSLDDLIAYN
Result: -1.3
